method-notes: Biochemical counterscreen for C difficile toxins, absence of UDPG, inhibitor dose response (AID 720650)
condition-notes: series mostly up to 19.5 µM
Active and inactive are the calls of the source. The rule behind the calls is not given here.
Respond only with the outcome that fits, drawn from active, inactive

[in] How did this test come out for `COc1cccc(C(=O)Nc2ccc3c(c2)C(=O)N(C)[C@@H]2CC[C@H](CC(=O)NCCCN4CCOCC4)O[C@@H]2CO3)c1` ?
[out] inactive

[in] Let us now turn to `Nc1nnn(CC(=O)N/N=C/c2ccc(O)cc2)n1`
[out] active

[in] // next record `CC1(C)Cc2c(sc3ncn4c(=S)[nH]nc4c23)CO1`
[out] active
